Origin of the recorded values: the supplement of paper PMC6555819

- System: RARa:RXR (NR concentration 270 nM, RXRa partner concentration 90 nM)
- TEST_DESCRIPTION: PBM binding z-score (relative to random genomic background probes); higher = stronger binding; sequences stand for … in GC…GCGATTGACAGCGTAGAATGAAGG
MEASURE: PBM binding z-score
Answer with the value's number alone.

{"CHAIN": "TTTATTAGTTGATTAGGGCAACCGAAACAGCGGA", "PBM binding z-score": 0.832}
{"CHAIN": "TCATGTAGATCAAGCAGGTTAAGAAAGCCTGAGT", "PBM binding z-score": 0.72}

Observed PBM binding z-score on RARa:RXR (NR concentration 270 nM, RXRa partner concentration 90 nM), entry `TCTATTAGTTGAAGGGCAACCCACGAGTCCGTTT` , equals 0.823

Observed PBM binding z-score on RARa:RXR (NR concentration 270 nM, RXRa partner concentration 90 nM), entry `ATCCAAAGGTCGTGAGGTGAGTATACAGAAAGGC` , equals 4.91

Observed PBM binding z-score on RARa:RXR (NR concentration 270 nM, RXRa partner concentration 90 nM), entry `TCTATTAGTTGAAGGGCAACTGACGAGTCCGTTT` , equals 1.08

Observed PBM binding z-score on RARa:RXR (NR concentration 270 nM, RXRa partner concentration 90 nM), entry `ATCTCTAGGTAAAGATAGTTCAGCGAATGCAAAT` , equals 0.739

Observed PBM binding z-score on RARa:RXR (NR concentration 270 nM, RXRa partner concentration 90 nM), entry `CCTTACGGCTCACTCCAGGTTATAGCATCGGAGT` , equals 0.372

Observed PBM binding z-score on RARa:RXR (NR concentration 270 nM, RXRa partner concentration 90 nM), entry `TTACCAAGGTGAAGTTCGTTGATCCCTCTGTAGA` , equals 0.86

Observed PBM binding z-score on RARa:RXR (NR concentration 270 nM, RXRa partner concentration 90 nM), entry `CCGAATGGGGCAGAAAGGTTACCATACCATCCGG` , equals 1.8

Observed PBM binding z-score on RARa:RXR (NR concentration 270 nM, RXRa partner concentration 90 nM), entry `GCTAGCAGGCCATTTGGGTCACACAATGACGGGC` , equals 1.05

----------
- Test system: RXRa homodimer (NR concentration 180 nM)
- TEST_DESCRIPTION: PBM binding z-score (relative to random genomic background probes); higher = stronger binding; sequences stand for … in GC…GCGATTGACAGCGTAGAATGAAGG
Entries and their measured PBM binding z-score follow.
Answer with the value's number alone.

{"CHAIN": "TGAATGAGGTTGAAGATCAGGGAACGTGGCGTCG", "TARGET_OR_SYSTEM": "RXRa homodimer (NR concentration 180 nM)", "RESULT_VALUE": 0.787}
{"CHAIN": "ACAGAGAGGTGAGTGAAGGTAACTCAGCTGGACG", "TARGET_OR_SYSTEM": "RXRa homodimer (NR concentration 180 nM)", "RESULT_VALUE": 0.647}
{"CHAIN": "GGAACGAGGGCATTCGAGTTGTTAGCATGGCGAT", "TARGET_OR_SYSTEM": "RXRa homodimer (NR concentration 180 nM)", "RESULT_VALUE": 0.659}
{"CHAIN": "AGAATGAGGTTAAGATCAGGGAAACAGAATACAT", "TARGET_OR_SYSTEM": "RXRa homodimer (NR concentration 180 nM)", "RESULT_VALUE": 2.58}

Record `TCTATTAGTTGAAGGGCAATCGACGAGTCCGTTT` . Reported PBM binding z-score: 0.559

Record `TCTAGTTGGTCACGGAGGCCACACACGACGGGTA` . Reported PBM binding z-score: 1.06

Record `TCATATAGGAAAAGGTGAAAGTCGAACGATATGA` . Reported PBM binding z-score: 1.86

----------
- System: LXRa:RXRa (NR concentration 270 nM, RXRa partner concentration 90 nM)
- TEST_DESCRIPTION: PBM binding z-score (relative to random genomic background probes); higher = stronger binding; sequences stand for … in GC…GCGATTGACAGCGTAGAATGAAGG
Outcome: y for PBM binding z-score of at least 1; n for anything lower.

Completed entries (count: 6):
{"CHAIN": "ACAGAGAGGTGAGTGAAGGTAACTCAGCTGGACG", "TARGET_OR_SYSTEM": "LXRa:RXRa (NR concentration 270 nM, RXRa partner concentration 90 nM)", "ASSIGNED_LABEL": "n"}
{"CHAIN": "ACTATTAGTTGACGTAGGGCAACCGATACGACGC", "TARGET_OR_SYSTEM": "LXRa:RXRa (NR concentration 270 nM, RXRa partner concentration 90 nM)", "ASSIGNED_LABEL": "n"}
{"CHAIN": "TCTATTAGTTGATTAGGGCCACCGAAACAGCGGA", "TARGET_OR_SYSTEM": "LXRa:RXRa (NR concentration 270 nM, RXRa partner concentration 90 nM)", "ASSIGNED_LABEL": "n"}
{"CHAIN": "TTACCAAGGTGAGCGGAGGTCGTTGATCCAACTC", "TARGET_OR_SYSTEM": "LXRa:RXRa (NR concentration 270 nM, RXRa partner concentration 90 nM)", "ASSIGNED_LABEL": "y"}
{"CHAIN": "CAGCCTAGGTCAGGGCCAGGATAGGAGGAACGTT", "TARGET_OR_SYSTEM": "LXRa:RXRa (NR concentration 270 nM, RXRa partner concentration 90 nM)", "ASSIGNED_LABEL": "n"}
{"CHAIN": "GATACTGGGTCAAGGCCAGAGTACGCGTATTGAT", "TARGET_OR_SYSTEM": "LXRa:RXRa (NR concentration 270 nM, RXRa partner concentration 90 nM)", "ASSIGNED_LABEL": "y"}

Asked: Dear colleague, could you confirm whether `GTACCAAGGTGAATAGGTCGCTGATGAGTAGGCG` has PBM binding z-score at or above 1?
Given back: n

----------
Entries and their measured PBM binding z-score follow.
- System: RARg homodimer (NR concentration 270 nM)
- TEST_DESCRIPTION: PBM binding z-score (relative to random genomic background probes); higher = stronger binding; sequences stand for … in GC…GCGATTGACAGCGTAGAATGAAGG
Answer with the value's number alone.

Known results for sequences:
{"CHAIN": "TAGCCTAGGTGATGCGGGCCAGTATAGTGTCGGC", "PBM binding z-score": -0.372}
{"CHAIN": "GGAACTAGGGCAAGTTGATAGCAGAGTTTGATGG", "PBM binding z-score": 1.21}
{"CHAIN": "CCTACTGAGCCAAAGGTCATTGATTCCAATGCTC", "PBM binding z-score": 4.83}
{"CHAIN": "CGTCCAAGGTCAGCAGGTCTGTGAAAGCGACGTG", "PBM binding z-score": 6.07}
{"CHAIN": "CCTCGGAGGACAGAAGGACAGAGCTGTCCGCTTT", "PBM binding z-score": 0.674}

Record `GCGACTGGGGCAAACCAGGTTACCATAAGGTTGG` . Reported PBM binding z-score: 0.516

Record `TCGATTAGGTTAGGGGCATTCAGAATGGCGTCGA` . Reported PBM binding z-score: 0.723

Record `CCGATTAGGTTATGGGGCATTCAGGCAACGGTGA` . Reported PBM binding z-score: 0.783

Record `ACTAGCAGGCCACGGGTCACTCAAGATTAGTCCG` . Reported PBM binding z-score: 2.04

----------
- Tested on: PPARg DBDmut IVT, anti-PPARg (DBD mutation: PPARg1 K132A/R137A, NR concentration 270 nM)
- TEST_DESCRIPTION: PBM binding z-score (relative to random genomic background probes); higher = stronger binding; sequences stand for … in GC…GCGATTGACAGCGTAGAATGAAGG
MEASURE: PBM binding z-score

{"CHAIN": "CAAACTAGGTCAAAGTTCAAAGTCGAGCCAACCA", "PBM binding z-score": 3.37}
{"CHAIN": "AGAAAGAGGGCACGCTGAGTTGATAGCAGAGTAG", "PBM binding z-score": -0.413}
{"CHAIN": "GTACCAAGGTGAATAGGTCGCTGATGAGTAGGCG", "PBM binding z-score": -0.6}
{"CHAIN": "TTACCAAGATGAAAGGTCGTTGATGCACGCCTTG", "PBM binding z-score": 0.0757}
{"CHAIN": "CAAACTAGGTCTCCGGAAGGTCAAAGTCCGCATG", "PBM binding z-score": 0.489}
{"CHAIN": "GCTTGTAGATCAAGGCTAAGAAAGACTAAGCTAA", "PBM binding z-score": -0.466}

Now for the sequence whose PBM binding z-score we want.
Record `GGTCGGAGGACAAGGTCAGAGCTTTGTCCGTAGA` . Reported PBM binding z-score: -1.06
